test: Pharmacokinetics study after intragastric administration; type: in vivo; conditions: Sprague-Dawley, rat, plasma, po; SD rats, 20 mg/kg intragastric, n = 6; read-out: MRT0–12

>  <compound smiles>
CC(/C=C/C=C(\C)C(=O)O)=C\C=C\C=C(C)\C=C\C=C(/C)C(=O)O

>  <MRT last [h]>
3.03

$$$$
